Each entry below lists one item and its recorded PBM binding z-score value.
Tested on: FXR:RXRa (NR concentration 270 nM, RXRa partner concentration 90 nM)
Assay summary: PBM binding z-score (relative to random genomic background probes); higher = stronger binding; sequences stand for … in GC…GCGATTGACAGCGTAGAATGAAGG
Answer field: number only, no words.

{"columns": ["Sequence text", "PBM binding z-score"],
 "data": [
  ["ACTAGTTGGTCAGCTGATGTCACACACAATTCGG", 0.0768],
  ["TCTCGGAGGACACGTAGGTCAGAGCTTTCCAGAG", 0.6],
  ["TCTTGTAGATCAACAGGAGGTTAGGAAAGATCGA", -0.355],
  ["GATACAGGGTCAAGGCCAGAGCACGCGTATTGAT", 6.68],
  ["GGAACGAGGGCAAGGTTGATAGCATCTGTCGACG", 0.705]
]}

[in] # query: PBM binding z-score of entry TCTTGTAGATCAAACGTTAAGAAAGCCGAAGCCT
[out] 0.211

[in] # query: PBM binding z-score of entry TCGAGTAGGTTAGTCGGGACATTCAGCCAACATA
[out] 2.7e-05

###

Test system: PPARg:RXRa 270nM:90nM, anti-RXR (NR concentration 270 nM, RXRa partner concentration 90 nM)
Assay summary: PBM binding z-score (relative to random genomic background probes); higher = stronger binding; sequences stand for … in GC…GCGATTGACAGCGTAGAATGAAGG
Hi all, reminder that labels come from PBM binding z-score, split as range A (below 2), range B (2 to below 5), range C (5 or more)

As a guide, the following entries are already answered.
{"columns": ["Sequence text", "Class assignment"],
 "data": [
  ["AGGATGAGGTTATACGTAGATCAGGGAAGAAAGT", "range A"],
  ["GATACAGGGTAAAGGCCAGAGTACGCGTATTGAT", "range C"],
  ["CGAATTAGGTCATCCAGGACAGTGAATACATTGA", "range C"],
  ["ATATGTAGGTTATCGGGTCAATCAGTTTGCGCAT", "range C"],
  ["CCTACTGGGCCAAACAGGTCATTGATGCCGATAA", "range B"],
  ["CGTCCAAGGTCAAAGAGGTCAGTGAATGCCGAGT", "range C"],
  ["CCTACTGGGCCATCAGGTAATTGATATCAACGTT", "range A"],
  ["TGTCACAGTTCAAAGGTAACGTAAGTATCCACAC", "range B"]
]}

[in] State the class of the sequence shown: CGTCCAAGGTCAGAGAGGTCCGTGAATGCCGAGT
[out] range B

[in] State the class of the sequence shown: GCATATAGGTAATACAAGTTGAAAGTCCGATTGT
[out] range A

[in] State the class of the sequence shown: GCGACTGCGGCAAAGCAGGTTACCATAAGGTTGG
[out] range A

[in] State the class of the sequence shown: CCTTACGGGTCACTGACAGGTTATAGAATTTGGA
[out] range B

[in] State the class of the sequence shown: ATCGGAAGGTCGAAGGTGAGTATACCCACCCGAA
[out] range B

###

Each entry below lists one item and its recorded PBM binding z-score value.
Tested on: RXRa DBDmut IVT, anti-RXR (DBD mutation: RXRa K156A/R161A, NR concentration 90 nM)
Assay summary: PBM binding z-score (relative to random genomic background probes); higher = stronger binding; sequences stand for … in GC…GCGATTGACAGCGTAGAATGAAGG
Answer field: number only, no words.

{"columns": ["Sequence text", "PBM binding z-score"],
 "data": [
  ["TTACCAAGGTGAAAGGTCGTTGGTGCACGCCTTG", 0.82],
  ["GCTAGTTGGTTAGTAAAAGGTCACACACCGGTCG", 0.675],
  ["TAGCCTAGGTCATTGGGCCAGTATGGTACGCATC", 1.46],
  ["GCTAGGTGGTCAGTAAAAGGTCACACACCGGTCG", 0.0546],
  ["CGAACGAGGGCATGAGTTGATAGCGAATGCCGAT", 2.41]
]}

[in] # query: PBM binding z-score of entry ATCTCTAGGTCACCAAGTTCAGTGAATGCCGAAC
[out] 2.74

[in] # query: PBM binding z-score of entry GCATATAGGTAATACAAGCTGAAAGTCCGATTGT
[out] 0.344

[in] # query: PBM binding z-score of entry CTACCAAGGTGAACAAGGTCGTTGATTACTATTC
[out] 1.41

[in] # query: PBM binding z-score of entry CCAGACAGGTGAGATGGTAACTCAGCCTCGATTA
[out] -0.124

[in] # query: PBM binding z-score of entry ATCTCTAGGTAAAGATCGTTCAGTGAATGCAAAT
[out] -0.238
